- System: TRPC4 beta (transient receptor potential cation channel C4), mouse
- assay_details: potentiation of DAMGO EC20 TRPC4 response – cell-based, Fluo-4, HEK293 TRPC4beta/mu-opioid, confirmation (AID 2555)
- details: DAMGO EC20, Fluo-4 calcium flux, at 10 µM
Calls of active or inactive are those of the source.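 Rule for the calls: active = primary screen hit whose calcium fluorescence ratio, in both repeats, exceeds the weak agonist control mean by 3 SD; inactive = the rest.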
Classes to choose from: Y for active, N for inactive

Please review the entries below; each comes with its answer.
> print(dat)
                                   molecule  class.label
1  CCC1CCCCN1Cc1nc2c(c(=O)n(C)c(=O)n2C)n1Cc1ccccc1 (stereo unspecified)            N
2  COc1cc(C2c3c(-c4ccccc4)n[nH]c3C(=O)N2c2ccccc2)ccc1O (stereo unspecified)            Y
3  CC1CCc2c(sc(/N=C/N(C)C)c2C#N)C1 (stereo unspecified)            N

Task item: Record lookup: outcome of this test for O=C(Nc1ccc(F)cc1)N1CCN2C(=O)c3ccccc3C12c1ccccc1 (stereo unspecified) ?
Reply: N

Task item: Param item: CN(C)CCNc1ccc(Cl)cc1[N+](=O)[O-]
Reply: N

Task item: How about this molecule: CCCn1c(NCc2ccc(C)o2)nc2ccccc21
Reply: N

###

- Tested on: TRPC4 (mouse), co-expressed with 5HT1a in HEK293
- assay_details: enhancement of serotonin-evoked TRPC4 response – cell-based, second counter screen, HEK293 TRPC4/5HT1a, Fluo-4, counter-screen for TRPC4 potentiator project, confirmation (AID 434979)
- details: Fluo-4 calcium flux, at 10 µM, serotonin added at its EC20 dose
Active and inactive are the calls of the source.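 Rule for the calls: active = signal rise over 3 SD above mean of control wells given weak agonist, in both repeats and first screen; inactive = the rest.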
Use one of these outcomes when replying: active, inactive

> print(dat)
                                   compound  class.label
1  O=c1c2ccccc2oc2nc(C3CCCCC3)n(Cc3ccco3)c(=O)c12       active
2  O=C(c1ccc2c(c1)OCO2)C1CCCN(Cc2ccccc2OC(F)F)C1 (stereo not given)     inactive

Task item: What is the recorded call for this compound in the test? COc1ccc(C(=O)c2no[n+]([O-])c2C(=O)c2ccc(OC)cc2)cc1
Reply: active

Task item: Please do the same for CC(C)(C)c1cc2cccnc2n1Cc1ccccc1 as well.
Reply: inactive

Task item: // query: CCOc1cc(CNCCCN2CCOCC2)cc(Br)c1OCC(=O)Nc1cccc(C(F)(F)F)c1
Reply: inactive

###

- target_or_test_system: Short transient receptor potential channel 4 (Mus musculus)
- assay_details: calcium entry via TRPC4 opening agents – cell-based, HEK293 TRPC4/mu-opioid, Fluo-4 calcium, dose response (AID 434937);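 note: HEK293 cells coexpressing mouse TRPC4 with mu-opioid receptor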
- details: HEK293 TRPC4 cells, Fluo-4 calcium fluorescence ratio; series mostly up to 20 µM
Measured potencies and affinities stand elsewhere. The source made the active and inactive calls.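 The calls were made as follows: active = primary screen activator hit with a dose response curve and TRPC4 channel activation at any tested dose; inactive = no activation, no dose response, or not a primary hit.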
property_measured: outcome

Past entries and their recorded results:
> print(dat)
                                    molecule  property.measured  endpoint.result
 1      O=C(c1cc2cc(Br)cc(Br)c2oc1=O)N1CCCC1            outcome         inactive
 2    Cc1cc(Nc2ccc3c(c2)OCCO3)c2cc(Cl)ccc2n1            outcome         inactive
 3  CCN(CC)CCSc1nnc2c3ccccc3n(Cc3ccccc3)c2n1            outcome         inactive
 4    O=S(=O)(c1ccccc1Cl)N1CCC(Cc2ccccc2)CC1            outcome         inactive
 5              CCCCN1CCc2c1nc1ccc(Br)cc1c2N            outcome         inactive
 6  COCCn1c(SCc2cc(C(C)=O)ccc2OC)nc2cc(Cl)ccc2c1=O            outcome         inactive
 7          Nc1c2c(nc3ccccc13)N(c1ccccc1)CC2            outcome         inactive
 8  Cc1ccc(NC(=O)c2cc(N3C(=O)C=CC3=O)ccc2N2CCOCC2)cc1            outcome         inactive
 9   COc1cc(/C=C2/SC(=O)NC2=O)ccc1OCc1ccccc1            outcome         inactive
10             Cc1cc(OCC(=O)NC2CCCCC2)ccc1Cl            outcome         inactive

Task item: Would you kindly share the measured outcome for O=C(CN1CCCCC1)N1c2ccccc2Oc2ccccc21 ?
Reply: inactive

Task item: Also c1ccc(-c2nc(NCc3ccco3)c3ccccc3n2)cc1 ?
Reply: inactive

Task item: Now the same for Cc1oc(-c2ccoc2)nc1CN(Cc1ccccc1)CC1CC1
Reply: inactive

Task item: Again, but for N#Cc1c(N)sc2c1CCCCCC2
Reply: inactive

Task item: What do we get for C#CC[N+]1(CC#Cc2cccc3ccccc23)CCOCC1 ?
Reply: inactive

Task item: Item: CCOc1ccc(OCC(O)CNC2CCN(Cc3ccccc3)CC2)cc1 (stereo unspecified)
Reply: inactive

Task item: Also need CC(C)Cc1nc(N2CCOCC2)c(C#N)c2c1CCC2 , thanks.
Reply: inactive

Task item: // query: Cc1cc(Cl)cc(C)c1OCCCCCn1ccnc1
Reply: inactive

Task item: What do you get for c1ccc2c(N3CCCCC3)nc(N3CCOCC3)nc2c1 ?
Reply: inactive

Task item: Next molecule: Cn1c(-c2ccc(F)cc2)cnc1NCc1ccc(F)cc1F
Reply: inactive

Task item: Follow-up entry: OC1(c2ccc(Br)cc2)CN(c2ccccc2)C2=[N+]1CCS2 (stereo unspecified)
Reply: inactive

Task item: Consider next the molecule CCCn1c(=O)c(C(=O)NCC2CCCO2)c(O)c2ccccc21 (stereo unspecified) in the same way.
Reply: inactive

Task item: Repeat for the following molecule: C=CCNC(=S)N1CCN(C2CCCCC2)CC1
Reply: inactive

###

- Tested on: transient receptor potential cation channel C4 beta (TRPC4), mouse
- assay_details: TRPC4 cation channel opening, second retest – cell-based, second round, Fluo4, HEK293 TRPC4beta/mu-opioid, 1 µM, confirmation (AID 2461)
- details: Fluo4 calcium fluorescence, at 1 µM
Active and inactive are the calls of the source.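 How the source made its calls: active means primary screen active and over 50% activation in each of two duplicate runs; inactive means the rest.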
Field 'call' accepts YES (active), NO (inactive)

Worked set:
> print(dat)
                                   molecule  class.label
1  Cc1ccc(C(=O)Nc2ccccc2C(=O)N2CC3(C)CC2CC(C)(C)C3)cc1 (configuration not stated)           NO
2    Brc1ccccc1CN1CCN(Cc2c[nH]c3ccccc23)CC1           NO
3   COc1ccc2c(c1)c1ncn(CCN3CCCC3)c(=O)c1n2C           NO
4  O=[N+]([O-])c1ccc(CN2CCN(c3nc4ccccc4s3)CC2)cc1           NO

Task item: Entry Cc1cc(OCC(=O)Nc2ccc(N3CCN(C)CC3)cc2)ccc1Cl : call = ?
Reply: NO

Task item: Likewise for COC(=O)NCC(c1ccc2c(c1)OCO2)N1CCN(c2ccccc2)CC1 (configuration not stated) ?
Reply: YES

Task item: Would you mind doing CCOC(=O)C(C)Sc1nc2c(c(=O)[nH]c(=O)n2C)n1Cc1ccc(Cl)cc1 (configuration not stated) as well?
Reply: NO

Task item: Can you handle O=C(C1CC1)N1CCc2cc(S(=O)(=O)NC3CCN(Cc4ccccc4)CC3)ccc21 next?
Reply: NO

Task item: Item: Cc1sc2ncnc(NCC(c3ccco3)N3CCCC3)c2c1C (configuration not stated)
Reply: YES

Task item: And for CCOc1ccc(Cl)cc1/C=N/O ?
Reply: NO

Task item: And what about the molecule COc1ccc(-n2cc(CNCc3cccnc3)c(-c3cccc(F)c3)n2)cc1 ?
Reply: NO

Task item: Proceed to CCN(C(=O)c1cc2c(s1)-c1ccccc1OC2)c1cc(OC)ccc1OC
Reply: NO

Task item: Next molecule: c1ccc(Nc2c3c(nc4ccccc24)CCC3)cc1
Reply: NO

Task item: // query: CCC(=O)N1CCc2cc(Br)cc(S(=O)(=O)NCCCN(C)Cc3ccccc3)c21
Reply: YES

Task item: What about this molecule? CCOC(=O)C1(CC2CC2)CCN(Cc2cn[nH]c2-c2cccc(F)c2)CC1
Reply: NO

Task item: Request: COc1cccc(C(CNC(=O)C(c2ccccc2)c2ccccc2)N(C)C)c1 (configuration not stated)
Reply: NO

Task item: // next record CCN(CC)Cc1cc(CCNC(=O)c2ccc(Cl)cc2)ccc1O
Reply: NO

Task item: Quick one: COC(=O)c1ccc(C(=S)NCC2(N(C)C)CCCCC2)cc1
Reply: NO

###

- assay_details: serotonin-gated TRPC4 signal block – cell-based, second counter screen, HEK293 TRPC4/5HT1a, Fluo-4, counter-screen for TRPC4 inhibitor project, confirmation (AID 434978)
- details: Fluo-4 calcium flux, at 10 µM, serotonin added to trigger calcium flux
Active and inactive are the calls of the source.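 How the source made its calls: active means primary screen active whose calcium signal fell more than 3 SD beyond the full-serotonin control mean in both duplicate plates; inactive means the rest.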
Return exactly one item of active, inactive

> print(dat)
                                   compound  class.label
1  CCOC(=O)Cc1csc(NC(=O)NC2(C(F)(F)F)Oc3cc(Cl)c(Cl)cc3O2)n1       active
2  Cc1ccc(-n2cccn2)c(CN2CCCC(C(=O)c3ccc4c(c3)OCO4)C2)c1 (stereo unspecified)       active
3         CC(C)(c1ccccc1)c1ccc(OCCCNCCO)cc1       active
4  O=C(NCC(c1cccs1)N1CCOCC1)c1ccc(Cl)c([N+](=O)[O-])c1 (stereo unspecified)     inactive
5  COC(=O)c1ccc(N2CCN(C)CC2)c(NC(=O)c2cccs2)c1     inactive

Task item: // outcome(item) with item = CC1CCN(CCc2nc3cc(NS(=O)(=O)c4ccc(F)cc4)ccc3n2C)CC1
Reply: inactive
